Just for reference, paper PMC11004395 is where these values come from.

TESTED_TARGET: bovine xanthine oxidase (BXO) (Bos taurus)
Sequence (P80457 whole entry): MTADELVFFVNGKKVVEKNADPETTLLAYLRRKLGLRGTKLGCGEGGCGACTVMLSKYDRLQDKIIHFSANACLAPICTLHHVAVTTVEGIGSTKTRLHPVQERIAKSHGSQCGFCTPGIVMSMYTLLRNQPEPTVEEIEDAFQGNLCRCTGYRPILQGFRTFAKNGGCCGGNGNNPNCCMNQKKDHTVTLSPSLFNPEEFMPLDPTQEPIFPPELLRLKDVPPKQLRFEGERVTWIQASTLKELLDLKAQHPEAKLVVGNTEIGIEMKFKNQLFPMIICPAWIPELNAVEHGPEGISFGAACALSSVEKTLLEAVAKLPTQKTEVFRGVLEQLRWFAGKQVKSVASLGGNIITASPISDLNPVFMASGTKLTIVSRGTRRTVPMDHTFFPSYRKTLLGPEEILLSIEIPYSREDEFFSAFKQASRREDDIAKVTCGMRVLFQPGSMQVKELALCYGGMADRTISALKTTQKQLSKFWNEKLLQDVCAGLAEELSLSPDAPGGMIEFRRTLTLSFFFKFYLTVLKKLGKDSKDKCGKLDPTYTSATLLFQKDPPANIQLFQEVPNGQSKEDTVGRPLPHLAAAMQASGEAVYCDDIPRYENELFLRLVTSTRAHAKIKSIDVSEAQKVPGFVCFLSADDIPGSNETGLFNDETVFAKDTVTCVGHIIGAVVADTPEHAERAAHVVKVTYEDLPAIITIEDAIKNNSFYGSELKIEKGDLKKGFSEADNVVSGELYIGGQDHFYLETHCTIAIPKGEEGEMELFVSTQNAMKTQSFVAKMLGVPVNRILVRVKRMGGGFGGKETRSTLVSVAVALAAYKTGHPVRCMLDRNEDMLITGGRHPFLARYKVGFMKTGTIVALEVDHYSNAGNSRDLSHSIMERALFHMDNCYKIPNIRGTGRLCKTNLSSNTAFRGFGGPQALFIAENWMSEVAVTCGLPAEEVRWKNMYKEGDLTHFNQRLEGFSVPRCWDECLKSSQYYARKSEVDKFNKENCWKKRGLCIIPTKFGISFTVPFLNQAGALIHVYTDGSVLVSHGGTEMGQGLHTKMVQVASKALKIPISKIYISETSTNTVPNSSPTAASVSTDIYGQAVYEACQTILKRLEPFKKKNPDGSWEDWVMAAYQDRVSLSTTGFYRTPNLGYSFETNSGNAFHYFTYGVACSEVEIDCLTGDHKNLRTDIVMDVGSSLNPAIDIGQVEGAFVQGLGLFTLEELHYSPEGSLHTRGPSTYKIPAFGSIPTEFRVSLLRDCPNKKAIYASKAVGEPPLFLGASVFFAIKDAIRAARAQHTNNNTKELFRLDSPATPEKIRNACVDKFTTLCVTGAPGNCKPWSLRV
pIC50: −log10 of the molar value.
RECORDED_METRIC: pIC50

Input line: // fetch bovine xanthine oxidase (BXO) (Bos taurus) pIC50 for O=[N+]([O-])c1ccc(C=Nn2c(Cn3nnc4ccccc43)n[nH]c2=S)cc1
Output line: ≥ 3.58
